Origin of the recorded values: patent US6849732B2

- TARGET OR SYSTEM: stromelysin (HSLN) (Homo sapiens, UniProt P08254)
- Sequence (P08254 100-477): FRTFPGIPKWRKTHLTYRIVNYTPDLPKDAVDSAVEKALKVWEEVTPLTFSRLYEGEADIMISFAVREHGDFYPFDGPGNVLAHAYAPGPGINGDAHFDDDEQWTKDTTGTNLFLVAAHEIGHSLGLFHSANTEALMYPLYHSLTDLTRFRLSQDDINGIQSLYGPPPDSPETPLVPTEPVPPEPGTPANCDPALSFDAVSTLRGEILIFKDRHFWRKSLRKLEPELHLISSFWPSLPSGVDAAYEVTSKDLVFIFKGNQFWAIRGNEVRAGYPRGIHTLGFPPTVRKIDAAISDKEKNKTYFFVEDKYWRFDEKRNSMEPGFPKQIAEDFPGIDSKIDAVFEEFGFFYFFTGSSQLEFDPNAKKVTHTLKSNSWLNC
- ASSAY REMARKS: MCA fluorogenic enzyme assay, competitive inhibition analysis (Ki,app), stromelysin
- Type: biochemical
- RUN CONDITIONS: Ki,app; MCA peptide substrate, 37° C., pH 7.5; read-out: Enzyme Inhibition Constants (K1) HSLN
Counter-ions that a name gives are not always drawn.
Property: pKi; scope: individual molecules
FYI, pKi means -log10 of a concentration in mol per litre.

QUERY: Returns the measured pKi for the input molecule. Input: O=C(NO)C1CSCCN1S(=O)(=O)c1ccc(Oc2ccc(F)cc2)cc1 (racemic) [Example 13(c)]
RESULT: 9.28

QUERY: Returns the measured pKi for the input molecule. Input: CCOC(=O)CN1CCN(S(=O)(=O)c2ccc(Oc3ccc(Cl)cc3)cc2)[C@@H](C(=O)NO)C1 [Example 11(c), hydrochloride]
RESULT: 9.60

QUERY: Returns the measured pKi for the input molecule. Input: CC(C)(C)OC(=O)N1CCN(S(=O)(=O)c2ccc(Oc3ccc(C#N)cc3)cc2)C(C(=O)NO)C1 (racemic) [Example 9(c)]
RESULT: 7.85

QUERY: Returns the measured pKi for the input molecule. Input: O=C(NO)C1CSCCN1S(=O)(=O)c1ccc(Oc2ccc(Br)cc2)cc1 (racemic) [Example 13(a)]
RESULT: 9.48

====

- TARGET OR SYSTEM: stromelysin (HSLN) (Homo sapiens)
- ASSAY REMARKS: MCA fluorogenic enzyme assay, competitive inhibition analysis (Ki,app), stromelysin
- Type: biochemical
- RUN CONDITIONS: Ki,app; MCA peptide substrate, 37° C., pH 7.5; read-out: Enzyme Inhibition Constants (K1) HSLN
pKi: −log10 of the molar value.
Outcome label depends on pKi relative to 9: at/above gives 1, below gives 0.

1) CNC(=O)N1CCN(S(=O)(=O)c2ccc(Oc3ccc(Cl)cc3)cc2)C(C(=O)NO)C1 (racemic)
1

QUERY: Does CC(=O)N1CCCN(S(=O)(=O)c2ccc(Oc3ccc(F)cc3)cc2)C1C(=O)NO (racemic) have a reported pKi of at least 9?
RESULT: 0

QUERY: Does CC1(C)[C@H](C(=O)NO)N(S(=O)(=O)c2ccc(Oc3ccncc3)cc2)CC[S@+]1[O-] [Example 19(a), 1(S), 3(S) isomer] have a reported pKi of at least 9?
RESULT: 0

QUERY: Does `O=C1C[C@H](C(=O)NO)N(S(=O)(=O)c2ccc(Oc3ccccc3)cc2)CN1` have a reported pKi of at least 9?
RESULT: 0

QUERY: Does `O=C1C[C@H](C(=O)NO)N(S(=O)(=O)c2ccc(Oc3ccc(F)cc3)cc2)CN1` have a reported pKi of at least 9?
RESULT: 0

QUERY: Does `CS(=O)(=O)N1CCN(S(=O)(=O)c2ccc(Oc3ccc(F)cc3)cc2)[C@@H](C(=O)NO)C1` have a reported pKi of at least 9?
RESULT: 1

====

Property: pKi; scope: individual compounds
- TARGET OR SYSTEM: stromelysin (HSLN) (Homo sapiens, UniProt P08254)
- ASSAY REMARKS: MCA fluorogenic enzyme assay, competitive inhibition analysis (Ki,app), stromelysin
- Format: biochemical
- RUN CONDITIONS: Ki,app; MCA peptide substrate, 37° C., pH 7.5; read-out: Enzyme Inhibition Constants (K1) HSLN
Structures can show the parent of a compound that is named as a salt.
FYI, pKi means -log10 of a concentration in mol per litre.

QUERY: Returns the measured pKi for the input compound. Input: O=C(NO)[C@H]1CNCCN1S(=O)(=O)c1ccc(Oc2ccc(F)cc2)cc1 [Example 10(b), hydrochloride]
RESULT: 9.01

QUERY: Returns the measured pKi for the input compound. Input: `CC1(C)SCCN(S(=O)(=O)c2ccc(Oc3ccc(Cl)cc3)cc2)[C@H]1C(=O)NO`
RESULT: 10.23

QUERY: Returns the measured pKi for the input compound. Input: Cl.O=C(NO)C1CNCCN1S(=O)(=O)c1ccc(Oc2ccc(Br)cc2)cc1 (racemic) [5(a), hydrochloride]
RESULT: 8.74

QUERY: Returns the measured pKi for the input compound. Input: `CC1(C)[C@H](C(=O)NO)N(S(=O)(=O)c2ccc(Oc3ccc(Br)cc3)cc2)CC[S@@+]1[O-]`
RESULT: 10.25

QUERY: Returns the measured pKi for the input compound. Input: O=C(NO)C1CNCCN1S(=O)(=O)c1ccc(Oc2ccccc2)cc1 (racemic)
RESULT: 8.21

QUERY: Returns the measured pKi for the input compound. Input: CN1CCN(S(=O)(=O)c2ccc(Oc3ccc(Cl)cc3)cc2)[C@@H](C(=O)NO)C1 [Example 11(a), hydrochloride]
RESULT: 9.17

QUERY: Returns the measured pKi for the input compound. Input: COc1ccc(Oc2ccc(S(=O)(=O)N3CCN(S(C)(=O)=O)CC3C(=O)NO)cc2)cc1 (racemic)
RESULT: 9.72
